Catalogue of binders with associated pKi
# tested-target: Sushi domains (SD1/2) protein of GABAB1a (GB1a)
# Sequence (Q9Z0U4 29-158): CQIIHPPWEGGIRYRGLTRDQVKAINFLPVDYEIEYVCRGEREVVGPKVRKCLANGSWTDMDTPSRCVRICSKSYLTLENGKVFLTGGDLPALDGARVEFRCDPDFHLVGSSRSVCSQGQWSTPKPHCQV
# assay-name: FP competition vs TAMRA AJAP-1probe
Starred links: 1 amine or outer side, 2 acyl side, 3 side chain; linkers in the order of their positions; H or OH if unused. Non-standard residues stand in square brackets, D forms with d. Tyr(Et) = Oetyr, O-ethyl-L-tyrosine, CCOc1ccc(C[C@H](N[*:1])C(=O)[*:2])cc1
Schema: pKi number; meaning minus log10 of the concentration expressed in molar units.

Recorded pKi, per entry:
Ac-ETEWIAWGPTGDED-NH2
7.46
Ac-ETEFIAWYPADTD-NH2
6.72
Ac-DWAIVWGPTVSRED-NH2
6.47

Attention now turns to another entry.
Short answer for Ac-EDDSDVWW[Tyr(Et)]GADTD-NH2 (SMILES CCOc1ccc(C[C@H](NC(=O)[C@H](Cc2c[nH]c3ccccc23)NC(=O)[C@H](Cc2c[nH]c3ccccc23)NC(=O)[C@@H](NC(=O)[C@H](CC(=O)O)NC(=O)[C@H](CO)NC(=O)[C@H](CC(=O)O)NC(=O)[C@H](CC(=O)O)NC(=O)[C@H](CCC(=O)O)NC(C)=O)C(C)C)C(=O)NCC(=O)N[C@@H](C)C(=O)N[C@@H](CC(=O)O)C(=O)N[C@H](C(=O)N[C@@H](CC(=O)O)C(N)=O)[C@@H](C)O)cc1) [EDDSDVWW(Oetyr)GADTD] : pKi was 6.95
